Assay: Screening of antioxidant (tolterodine decomposition in H2O2 solution)
Type: physicochemical
Details: tolterodine in ethanol/0.3% H2O2 with 10 mg of the named antioxidant, 25° C., 100 rpm, 2.5 days
Property measured: Total decomposed substances (peak area ratio of decomposed substances of tolterodine) (%)

- Compound: "CCOC(=O)c1cc(O)c(O)c(O)c1 [Ethyl gallate]"
  Reading: 13.00
- Compound: "O=S([O-])[O-].[Na+].[Na+] [Sodium sulfite]"
  Reading: 5.67
- Compound: "O=C([O-])CN(CCN(CC(=O)[O-])CC(=O)[O-])CC(=O)[O-].[Ca+2].[Na+].[Na+]"
  Reading: 29.69
- Compound: "Cc1cc(C(C)(C)C)c(O)c(C(C)(C)C)c1 [Butylated hydroxytoluene (BHT), Butylated hydroxytoluene]"
  Reading: 18.82
- Compound: "COc1ccc(O)c(C(C)(C)C)c1 [Butylated hydroxyanisole (BHA), Butylated hydroxyanisole]"
  Reading: 23.87
- Compound: "CCCCCCCCCCCCOC(=O)c1cc(O)c(O)c(O)c1 [Lauryl gallate]"
  Reading: 19.94
- Compound: "O=C(O)CC(O)(CC(=O)O)C(=O)O [Citric acid]"
  Reading: 1.46
- Compound: "Cc1c(C)c2c(c(C)c1O)CCC(C)(CCCC(C)CCCC(C)CCCC(C)C)O2 (stereo not drawn) [d,l-α-Tocopherol]"
  Reading: 20.29
- Compound: "O=C(O)C(O)C(O)C(=O)O (stereo not drawn) [l-Tartaric acid]"
  Reading: 1.44
- Compound: "CCCCCCCCOC(=O)c1cc(O)c(O)c(O)c1 [n-Octyl gallate]"
  Reading: 15.97
- Compound: "N[C@@H](CCC(=O)O)C(=O)O [l-Glutamic acid]"
  Reading: 1.52
- Compound: "CC(=O)Oc1c(C)c(C)c2c(c1C)CC[C@@](C)(CCC[C@H](C)CCC[C@H](C)CCCC(C)C)O2 [(+)-α-Tocopherol acetate]"
  Reading: 23.56
- Compound: "O=C1O[C@H]([C@@H](O)CO)C(O)=C1O [l-Ascorbic acid]"
  Reading: 1.21
- Compound: "O=S([O-])([O-])=S.[Na+].[Na+] [Sodium thiosulfate]"
  Reading: 1.94
- Compound: "O=C(O)CC(O)C(=O)O (racemic) [d,l-Malic acid]"
  Reading: 1.39
- Compound: "CCCCCCCCCCCCCCCC(=O)OC[C@H](O)[C@H]1OC(=O)C(O)=C1O [l-Ascorbic acid 6-palmitate]"
  Reading: 1.94
